# subjectOfTest: gH of HCMV strain TR (human cytomegalovirus strain TR)
# experimentNotes: cell-based or functional assay
binders and their reported IC50, neutralization of TR infection of ARPE-19
Express your answer in µg/mL, writing the number without its unit.

See these solved cases before continuing.
{"binder": "62-11 (antibody, V domains shown, also called NAb 62-11) VH: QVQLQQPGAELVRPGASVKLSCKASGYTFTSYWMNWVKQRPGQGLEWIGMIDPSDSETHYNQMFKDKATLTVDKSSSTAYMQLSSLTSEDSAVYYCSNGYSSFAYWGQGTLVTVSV VL: DVQMTQTTSSLSASLGDRVTISCSASQGISNYLNWYQQKPDGTVKLLIYDTSSLHSGVPSRFSGSGSGTDYSLTISNLEPEDIATYYCQQYSKLPYTFGGGTKLEIK", "readoutUnits": "µg/mL", "readoutNumber": 0.641}
{"binder": "62-100 (antibody, V domains shown, also called NAb 62-100) VH: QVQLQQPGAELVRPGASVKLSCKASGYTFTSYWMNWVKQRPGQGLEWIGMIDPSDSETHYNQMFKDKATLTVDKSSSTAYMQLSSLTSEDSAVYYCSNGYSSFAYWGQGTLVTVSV VL: DIVLTQSPATLSVTPGDSVSLSCRASQSISNNLHWYQQKSHESPRLLIKYASQSISGIPSRFSGSGSGTDFTLSINSVETEDFGKYVCQQSNSWPLTFGSGTKLEIK", "readoutUnits": "µg/mL", "readoutNumber": 2.13}
{"binder": "21E9 (antibody, V domains shown, also called NAb 21E9) VH: QIQLVQSGPELKKPGETVKISCKASGYTFTIYGMNWVKQAPGKGLKWMGWINTYTGEPTYADDFRGRFAFSLETSASTAYLQINNLKNEDTATYFCARKGYYGSSGYFDYWGQGTTLTVSS VL: SIVMTQTPKFLLVSAGDRVTITCKASQSVSNDVSWYQQKPGQSPKLLIYYASNRYTGVPDRFTGSGYGTDFTFTISTVQAEDLAVYFCQQDYSSPWTFGGGTKLEIK", "readoutUnits": "µg/mL", "readoutNumber": 0.926}

Per the records, this binder ( 2-80 (antibody, V domains shown, also called NAb 2-80) VH: QIQLVQSGPELKKPGETVKISCKASGYTFTNFGMNWVKQAPGKGLKWMGWINTYTGEPTYADDFKGRFAFSLETSASTASLQINNLKNEDTATYFCARRGDGLYSMDYWGQGTSVTVSS VL: DIVLTQSPASLAVSLGQRATISCRASESIDSYGNSFMYWYQQKPGQPPKLLIYRASNLESGIPARFSGSGSRTDFTLTINPVEADDVATYYCQQSNEDPLTFGAGTKLELK ) has IC50, neutralization of TR infection of ARPE-19 equal to 2.12
